experimental_details: chemical genetic growth profiling, strain panel (AID 1159580);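 note: tested at 20 µM; growth read once vehicle control cultures reached saturation at 30 °C; 1 = growth at the plate median or of vehicle wells; lower values mean less growth of the strain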
condition_context: S. cerevisiae deletion strains, growth OD, locus YMR307W, strain GAS1, hits give low values
About 2,000 (36%) of roughly 5,500 compounds were called active. About 18% were inconclusive and are not listed. Some of the results follow.
observed_property: normalized growth

>>> obs_value("COc1ccc2c3c1O[C@H]1C(=O)CC[C@@]4(O)C(C2)N(CC2CC2)CCC314 (stereo partly drawn)")
"0.993 (inactive)"
>>> obs_value("O=C(O)CNC(=O)C(CS)Cc1ccccc1 (stereo not drawn)")
"1 (inactive)"
>>> obs_value("CCCN(CCC)C1CCc2ccc(O)cc2C1 (stereo not drawn)")
"1.02 (inactive)"

* * *

experimental_details: chemical genetic growth profiling, strain panel (AID 1159580);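 note: tested at 20 µM; growth read once vehicle control cultures reached saturation at 30 °C; 1 = growth at the plate median or of vehicle wells; lower values mean less growth of the strain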
condition_context: S. cerevisiae deletion strains, growth OD, locus YKL160W, strain elf1, hits give low values
Out of some 5,500 compounds screened, about 2,000 (36%) were called active. Not shown: some 18% with an inconclusive outcome. Some of the results follow.
Label key: YES means normalized growth under 1; NO means normalized growth of 1 or more.

>>> discrete_label("Cn1cnc([N+](=O)[O-])c1Sc1ncnc2nc[nH]c12")
"NO"
>>> discrete_label("O=c1[nH]c2ccccc2n1CCCN1CCC(n2c(=O)[nH]c3cc(Cl)ccc32)CC1")
"YES"
>>> discrete_label("COc1ccc2c(=O)c(CC(=O)O)coc2c1")
"NO"
>>> discrete_label("C[C@]12CCC3C(CC[C@H]4CC(=O)CC[C@]34C)C1CCC2=O (stereo partly specified)")
"YES"
>>> discrete_label("COc1ccc2ccc(=O)oc2c1CC=C(C)C")
"YES"

* * *

experimental_details: chemical genetic growth profiling, strain panel (AID 1159580);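 note: tested at 20 µM; growth read once vehicle control cultures reached saturation at 30 °C; 1 = growth at the plate median or of vehicle wells; lower values mean less growth of the strain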
condition_context: S. cerevisiae deletion strains, growth OD, locus YPL256C, strain CLN2
In all, about 5,500 compounds went through this assay and about 2,000 (36%) were called active. Another 18% or so got no clear call; they are omitted. Rule as the data show it: active = normalized growth mostly below about 0.91 (no sharp cut-off); inconclusive = no clear call, values can overlap the other calls; inactive = mostly above about 0.92. Some of the results follow.
Outcome codes: label 1 = active, label 0 = inactive

>>> discrete_label("O=C1c2ccccc2C(=O)c2c(O)c(O)cc(O)c21")
"label 1"
>>> discrete_label("Fc1ccc(C(c2ccc(F)cc2)N2CCN(C/C=C/c3ccccc3)CC2)cc1")
"label 0"
>>> discrete_label("COC(=O)C[C@H]1C(C)(C)[C@@H](OC(C)=O)[C@@H]2CC3C4CC(=O)O[C@@H](c5ccoc5)[C@]4(C)CCC3[C@@]1(C)C2=O (some centres not stated)")
"label 0"
>>> discrete_label("O=C1c2ccccc2C(=O)c2c1ccc(O)c2O")
"label 1"
>>> discrete_label("N#C/C(=C\\c1ccc(C(F)(F)F)cc1)c1ccc(O)cc1")
"label 1"
>>> discrete_label("CSC(SC)=C(C#N)C(=O)c1ccccc1Cl")
"label 1"
>>> discrete_label("Nc1ncnc2nc[nH]c12")
"label 0"
>>> discrete_label("Nc1ccc(N2CCN(c3ccc(C(F)(F)F)cn3)CC2)nc1")
"label 0"
>>> discrete_label("N#C/C(=N/Nc1ccc(Cl)cc1)C(N)=S")
"label 1"
>>> discrete_label("CN1CCN(C(c2ccccc2)c2ccccc2)CC1")
"label 0"
>>> discrete_label("O=S(=O)(Nc1cc(-c2cccs2)nn1-c1ccc(I)cc1)c1cccc(F)c1")
"label 0"
>>> discrete_label("N#C/C(=N/Nc1ccc(Cl)cc1)C(=O)C1CC1")
"label 1"
>>> discrete_label("CC(=O)Oc1ccc2c(=O)c(Oc3ccc(Cl)cc3)c(C)oc2c1")
"label 0"
>>> discrete_label("Nc1ncnc2c1ncn2[C@@H]1O[C@H](CO)[C@@H](O)[C@@H]1O")
"label 0"
>>> discrete_label("OC[C@@H](O)[C@H](O)[C@@H](O)[C@H](O)CO")
"label 0"
>>> discrete_label("CCOc1nc2cccc(C(=O)OC(C)OC(=O)OC3CCCCC3)c2n1Cc1ccc(-c2ccccc2-c2nn[nH]n2)cc1 (configuration not stated)")
"label 0"
>>> discrete_label("C[C@]12CCC3C(CC[C@H]4C[C@H](O)CC[C@]34C)C1CCC2=O (some centres not stated)")
"label 0"
>>> discrete_label("OC[C@@H](O)C(O[C@@H]1O[C@H](CO)[C@H](O)[C@H](O)[C@H]1O)[C@H](O)[C@@H](O)CO (some centres not stated)")
"label 0"
>>> discrete_label("CC(C(=O)O)c1ccc(N2Cc3ccccc3C2=O)cc1 (configuration not stated)")
"label 0"
>>> discrete_label("COc1cc2ccc(=O)oc2c(O)c1O")
"label 0"
>>> discrete_label("CN(NC(=S)Nc1cc(Cl)ccc1Cl)c1ccc(C(F)(F)F)cc1[N+](=O)[O-]")
"label 1"
>>> discrete_label("O=c1[nH]cnc2nc[nH]c12")
"label 0"
